readout.label: solubility kinetic (µM)
Write the number in µM without appending the unit.

## Input # return recorded solubility kinetic for input NCc1cccc([C@H]2C[C@@H]2c2cc(Cl)cc(NC(=O)OCc3ccccc3)c2)c1 (racemic)
## Output 50

## Input # return recorded solubility kinetic for input `O=C(Nc1cc2c(c(-c3c[nH]c(=O)c(F)c3)c1)CNC2)c1cc(F)cc2[nH]ncc12`
## Output 66

## Input # return recorded solubility kinetic for input CNC(=O)c1c[nH]c2ncnc(N[C@H](c3ccc4c(c3)OCCO4)C(C)C)c12 (racemic)
## Output 319

## Input # return recorded solubility kinetic for input COCCNC(=O)[C@H](Nc1ccc2c(c1)CNC2)c1cc(Cl)cc(C2CC2)c1 (single isomer, unassigned)
## Output 320
